B1: Hairpin Ribozyme (parent)
chain: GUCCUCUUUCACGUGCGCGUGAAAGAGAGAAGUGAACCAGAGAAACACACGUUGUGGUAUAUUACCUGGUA

Variants of: B1
assay.info: self-cleavage, relative activity (ratio to wild type); higher = more cleavage; co-transcriptional
Listing of recorded self-cleavage by entry.
recorded.metric: self-cleavage

# mutation.string, data.value
data = [
    ("G51U U70G", 0.887),
    ("A22C A71G", 0.945),
    ("U9G C10G", 0.375),
    ("G29C C38U", 0.145),
    ("A43U C46A", 0.0823),
    ("U33C U53G", 0.299),
    ("A26G A28G", 1.12),
    ("C46G U63G", 0.0876),
    ("U20G U55G", 0.293),
    ("C4G C48G", 0.0514),
    ("A11U C46U", 0.0973),
    ("A59U U70C", 0.199),
    ("G34U G40A", 0.751),
    ("G34U U60A", 1.52),
    ("A31U U70C", 0.0555),
    ("U33G C38G", 0.128),
    ("C16A G19U", 0.862),
    ("A22C G34A", 1.04),
    ("C4U U9A", 0.202),
    ("U55C A64C", 0.102),
    ("U14C C66A", 0.223),
    ("G13C G69A", 0.214),
    ("A30G U55C", 0.0826),
    ("C16A A26C", 0.488),
    ("G17U G34C", 1.5),
    ("A30G G69C", 0.0841),
    ("C6G G68U", 0.156),
    ("C18G G40A", 0.344),
    ("C18G", 0.931),
    ("U9G A31C", 0.0438),
    ("G1A G54U", 0.153),
    ("G19C A31G", 0.524),
    ("U8C A44C", 0.131),
    ("U9G A11C", 0.416),
    ("C4G G13U", 0.21),
    ("C6U A49C", 0.0449),
    ("G15U U63G", 0.108),
    ("G27C A36C", 0.113),
    ("G42C G54A", 0.159),
    ("A24C G68A", 0.233),
    ("C10A G57U", 0.221),
    ("G29C G42C", 0.142),
    ("G17U A31C", 0.224),
    ("C37G A43C", 0.108),
    ("G32A A71U", 0.155),
    ("U14A A47C", 0.482),
    ("G1A U52A", 0.155),
    ("G15C U52C", 1.05),
    ("C10A C18A", 0.708),
    ("G29U A61G", 0.223),
    ("C37A U55A", 0.121),
    ("C46U C66G", 0.146),
    ("U5A C10G", 0.129),
    ("A24C U33A", 0.2),
    ("C16U G21U", 0.991),
    ("G13C G68C", 0.151),
    ("G1C C6A", 0.245),
    ("U62G G68U", 0.257),
    ("U2A A64G", 0.0976),
    ("G19C G34C", 1.31),
    ("A24U U60C", 1.09),
    ("A45G G51C", 0.176),
    ("G42A C50U", 0.106),
    ("A23G U62C", 0.43),
    ("A11C G42A", 0.278),
    ("A35G A45C", 0.106),
    ("C16A U20C", 0.956),
    ("C16G C38G", 0.191),
    ("G19A G32U", 0.175),
    ("A36U A39C", 0.084),
    ("C18G U33A", 0.169),
    ("U60A A71C", 1.24),
    ("A31G C66A", 0.127),
    ("C12G G69C", 0.355),
    ("C16A G54U", 0.595),
    ("U8A U62C", 0.183),
    ("U14A U55G", 0.179),
    ("U33A C50G", 0.211),
    ("A44C C65A", 0.213),
    ("A36U C50G", 0.0987),
    ("C3G U55A", 0.0814),
    ("C16G A23G", 0.751),
    ("G13U G51A", 0.745),
    ("U33A U58C", 0.0877),
    ("G27C C66U", 0.162),
    ("U14C G68U", 0.13),
    ("U7G U55A", 0.225),
    ("U33C C46G", 0.187),
    ("G17U A26C", 0.682),
    ("C18G C46A", 0.0797),
    ("U9A G15U", 0.864),
]

The reported measurements were obtained from the RNAGym collection of RNA variant scans (doi:10.7554/elife.80360).
